ASSAY_REMARKS: in vitro
STUDY_CONDITIONS: dog, CC50, run with Influenza A H3N2 Perth/16/2006 (so in the source); Visual
Bridge positions count the residues as written; N and C are the ends. Square brackets hold non-standard residues; d marks the D form. Peptide text beside a SMILES is read from it. R8 = C=CCCCCCC[C@@](C)(N)C(=O)O; S5 = C=CCCC[C@](C)(N)C(=O)O; Nle = CCCC[C@H](N)C(=O)O

COMPOUND: CCCC[C@H](NC(C)=O)C(=O)N[C@@H](CC(=O)O)C(=O)N[C@H](C(=O)N[C@@H](CC(N)=O)C(=O)N[C@]1(C)CCCCCCC=CCCC[C@@](C)(C(=O)N[C@@H](C)C(=O)N[C@@H](C)C(=O)N[C@@H](C)C(=O)N[C@@H](C)C(=O)N[C@@H](C)C(N)=O)NC(=O)[C@H](C)NC(=O)[C@H](CC(C)C)NC(=O)[C@H](Cc2ccccc2)NC(=O)[C@H](CC(C)C)NC(=O)[C@H](CC(C)C)NC(=O)[C@H]([C@@H](C)O)NC1=O)C(C)C [SP-25] (Ac-[Nle]DVN[R8]TLLFLA[S5]AAAAA-NH2; staple 5-12)
CC50: > 100 µM
